# System: oligodendrocyte progenitor cells (OPCs), OPC-5
# Method: Differentiation of OPCs to MBP+ oligodendrocytes (in vitro phenotypic screening, high-content imaging)
# Type: cell-based, mouse
# Recorded Conditions: Mus musculus, Oligodendrocyte progenitor cell; 0.1 μM, 72 h treatment; read-out: % enhancement of MBP+ oligodendrocyte generation at 0.1 μM concentration

- Compound: "CC(C)C(=O)NC(Cc1ccc(OCc2ccccc2)cc1)C(=O)NCCCN(C)c1ccccc1 (stereo not shown)"
  activation at 0.1 µM: "20 to 30%"
- Compound: "Clc1ccc(CN2CCN(Cc3ccccc3)CC2)cc1Cl"
  activation at 0.1 µM: "20 to 30%"
- Compound: "c1ccc(-c2ccc(CN3CCSCC3)cc2)cc1"
  activation at 0.1 µM: "30 to 40%"
- Compound: "OCC1CCCN(Cc2ccc(-c3ccccc3)cc2)C1 (stereo not shown)"
  activation at 0.1 µM: "20 to 30%"
- Compound: "NC(=O)C1CCN(Cc2ccc(-c3ccccc3)cc2)CC1"
  activation at 0.1 µM: "20 to 30%"
- Compound: "OCC1CCCCN1Cc1ccc(Cl)c(Cl)c1 (stereo not shown)"
  activation at 0.1 µM: "30 to 40%"
- Compound: "CSc1ccc(CN2CCCCC2CO)cc1 (stereo not shown)"
  activation at 0.1 µM: "30 to 40%"
- Compound: "c1ccc(-c2ccc(CN3CCCCCC3)cc2)cc1"
  activation at 0.1 µM: "20 to 30%"
- Compound: "c1ccc(-c2ccc(CN3CCCCCCC3)cc2)cc1"
  activation at 0.1 µM: "> 40%"
- Compound: "CN1CCN(Cc2ccc(-c3ccccc3)cc2)CC1"
  activation at 0.1 µM: "20 to 30%"

* * *

# Tested on: oligodendrocyte progenitor cells (OPCs), OPC-5
# Method: Differentiation of OPCs to MBP+ oligodendrocytes (in vitro phenotypic screening, high-content imaging)
# Format: cell-based, mouse
# Recorded Conditions: Mus musculus, Oligodendrocyte progenitor cell; 1 μM, 72 h treatment; read-out: % enhancement of MBP+ oligodendrocyte generation at 1 μM concentration
Readings of activation at 1 µM for the listed compounds
Parameter: activation at 1 µM

- Compound: "OC1CCN(Cc2ccc(-c3ccccc3)cc2)CC1"
  Assayed Target: "oligodendrocyte progenitor cells (OPCs), OPC-5"
  Result: "30 to 40%"
- Compound: "Clc1ccc(CN2CCCCCC2)cc1Cl"
  Assayed Target: "oligodendrocyte progenitor cells (OPCs), OPC-5"
  Result: "30 to 40%"
- Compound: "CN(C(=O)c1ccc(-c2ccccc2)cc1)[C@@H]1Cc2ccc(CN3CCCCC3CO)cc2C1 (stereo partly shown)"
  Assayed Target: "oligodendrocyte progenitor cells (OPCs), OPC-5"
  Result: "> 40%"
- Compound: "OCC1CCCCN1Cc1ccc(Cl)c(Cl)c1 (stereo not shown)"
  Assayed Target: "oligodendrocyte progenitor cells (OPCs), OPC-5"
  Result: "> 40%"
- Compound: "CCCCOc1ccc(CN2CCCCC2CC)cc1 (stereo not shown)"
  Assayed Target: "oligodendrocyte progenitor cells (OPCs), OPC-5"
  Result: "20 to 30%"
- Compound: "CSc1ccc(CN2CCCCC2CO)cc1 (stereo not shown)"
  Assayed Target: "oligodendrocyte progenitor cells (OPCs), OPC-5"
  Result: "30 to 40%"
- Compound: "NC(=O)C1CCN(Cc2ccc(-c3ccccc3)cc2)CC1"
  Assayed Target: "oligodendrocyte progenitor cells (OPCs), OPC-5"
  Result: "> 40%"
- Compound: "Clc1ccc(CN2CCN(Cc3ccccc3)CC2)cc1Cl"
  Assayed Target: "oligodendrocyte progenitor cells (OPCs), OPC-5"
  Result: "30 to 40%"
- Compound: "c1ccc(-c2ccc(CN3CCSCC3)cc2)cc1"
  Assayed Target: "oligodendrocyte progenitor cells (OPCs), OPC-5"
  Result: "30 to 40%"
- Compound: "CCN1CCN(Cc2ccc(-c3ccccc3)cc2)CC1"
  Assayed Target: "oligodendrocyte progenitor cells (OPCs), OPC-5"
  Result: "> 40%"
- Compound: "c1ccc(-c2ccc(CN3CCCCCC3)cc2)cc1"
  Assayed Target: "oligodendrocyte progenitor cells (OPCs), OPC-5"
  Result: "> 40%"
- Compound: "Clc1ccc(CN2CCCCCCC2)cc1Cl"
  Assayed Target: "oligodendrocyte progenitor cells (OPCs), OPC-5"
  Result: "≤ 20%"
- Compound: "OC1CCCN(Cc2ccc(-c3ccccc3)cc2)C1 (stereo not shown)"
  Assayed Target: "oligodendrocyte progenitor cells (OPCs), OPC-5"
  Result: "30 to 40%"
- Compound: "CN1CCN(Cc2ccc(-c3ccccc3)cc2)CC1"
  Assayed Target: "oligodendrocyte progenitor cells (OPCs), OPC-5"
  Result: "30 to 40%"
- Compound: "OCCN1CCN(Cc2ccc(-c3ccccc3)cc2)CC1"
  Assayed Target: "oligodendrocyte progenitor cells (OPCs), OPC-5"
  Result: "> 40%"
- Compound: "OCC1CCCN(Cc2ccc(-c3ccccc3)cc2)C1 (stereo not shown)"
  Assayed Target: "oligodendrocyte progenitor cells (OPCs), OPC-5"
  Result: "30 to 40%"
- Compound: "c1ccc(-c2ccc(CNCCc3ccc(CN4CCCCC4)cc3)cc2)cc1"
  Assayed Target: "oligodendrocyte progenitor cells (OPCs), OPC-5"
  Result: "30 to 40%"
- Compound: "c1ccc(-c2ccc(CN3CCCCCCC3)cc2)cc1"
  Assayed Target: "oligodendrocyte progenitor cells (OPCs), OPC-5"
  Result: "> 40%"
- Compound: "CC(C)C(=O)NC(Cc1ccc(OCc2ccccc2)cc1)C(=O)NCCCN(C)c1ccccc1 (stereo not shown)"
  Assayed Target: "oligodendrocyte progenitor cells (OPCs), OPC-5"
  Result: "30 to 40%"

* * *

Listing of entries alongside the reported activation at 0.1 µM.
# Test system: oligodendrocyte progenitor cells (OPCs), OPC-5
# Method: Differentiation of OPCs to MBP+ oligodendrocytes (in vitro phenotypic screening, high-content imaging)
# Assay type: cell-based, mouse
# Recorded Conditions: Mus musculus, Oligodendrocyte progenitor cell; 0.1 μM, 72 h treatment; read-out: % enhancement of MBP+ oligodendrocyte generation at 0.1 μM concentration
Parameter: activation at 0.1 µM

- Compound: "Clc1ccc(CN2CCCCCCC2)cc1Cl"
  Parameter: "activation at 0.1 µM"
  Result: "≤ 20%"
- Compound: "CN(C(=O)c1ccc(-c2ccccc2)cc1)[C@@H]1Cc2ccc(CN3CCCCC3CO)cc2C1 (stereo partly drawn)"
  Parameter: "activation at 0.1 µM"
  Result: "30 to 40%"
- Compound: "Clc1ccc(CN2CCCCCC2)cc1Cl"
  Parameter: "activation at 0.1 µM"
  Result: "20 to 30%"
- Compound: "c1ccc(-c2ccc(CNCCc3ccc(CN4CCCCC4)cc3)cc2)cc1"
  Parameter: "activation at 0.1 µM"
  Result: "20 to 30%"
- Compound: "OC1CCN(Cc2ccc(-c3ccccc3)cc2)CC1"
  Parameter: "activation at 0.1 µM"
  Result: "20 to 30%"
- Compound: "CCCCOc1ccc(CN2CCCCC2CC)cc1 (stereo not drawn)"
  Parameter: "activation at 0.1 µM"
  Result: "20 to 30%"
- Compound: "CCN1CCN(Cc2ccc(-c3ccccc3)cc2)CC1"
  Parameter: "activation at 0.1 µM"
  Result: "30 to 40%"
- Compound: "OCCN1CCN(Cc2ccc(-c3ccccc3)cc2)CC1"
  Parameter: "activation at 0.1 µM"
  Result: "20 to 30%"
- Compound: "OC1CCCN(Cc2ccc(-c3ccccc3)cc2)C1 (stereo not drawn)"
  Parameter: "activation at 0.1 µM"
  Result: "20 to 30%"

Where do these numbers come from? They come from patent US12048678B2.
